Molecular target: DNA topoisomerase 2-alpha (Homo sapiens, UniProt P11388)
Sequence (P11388 whole entry): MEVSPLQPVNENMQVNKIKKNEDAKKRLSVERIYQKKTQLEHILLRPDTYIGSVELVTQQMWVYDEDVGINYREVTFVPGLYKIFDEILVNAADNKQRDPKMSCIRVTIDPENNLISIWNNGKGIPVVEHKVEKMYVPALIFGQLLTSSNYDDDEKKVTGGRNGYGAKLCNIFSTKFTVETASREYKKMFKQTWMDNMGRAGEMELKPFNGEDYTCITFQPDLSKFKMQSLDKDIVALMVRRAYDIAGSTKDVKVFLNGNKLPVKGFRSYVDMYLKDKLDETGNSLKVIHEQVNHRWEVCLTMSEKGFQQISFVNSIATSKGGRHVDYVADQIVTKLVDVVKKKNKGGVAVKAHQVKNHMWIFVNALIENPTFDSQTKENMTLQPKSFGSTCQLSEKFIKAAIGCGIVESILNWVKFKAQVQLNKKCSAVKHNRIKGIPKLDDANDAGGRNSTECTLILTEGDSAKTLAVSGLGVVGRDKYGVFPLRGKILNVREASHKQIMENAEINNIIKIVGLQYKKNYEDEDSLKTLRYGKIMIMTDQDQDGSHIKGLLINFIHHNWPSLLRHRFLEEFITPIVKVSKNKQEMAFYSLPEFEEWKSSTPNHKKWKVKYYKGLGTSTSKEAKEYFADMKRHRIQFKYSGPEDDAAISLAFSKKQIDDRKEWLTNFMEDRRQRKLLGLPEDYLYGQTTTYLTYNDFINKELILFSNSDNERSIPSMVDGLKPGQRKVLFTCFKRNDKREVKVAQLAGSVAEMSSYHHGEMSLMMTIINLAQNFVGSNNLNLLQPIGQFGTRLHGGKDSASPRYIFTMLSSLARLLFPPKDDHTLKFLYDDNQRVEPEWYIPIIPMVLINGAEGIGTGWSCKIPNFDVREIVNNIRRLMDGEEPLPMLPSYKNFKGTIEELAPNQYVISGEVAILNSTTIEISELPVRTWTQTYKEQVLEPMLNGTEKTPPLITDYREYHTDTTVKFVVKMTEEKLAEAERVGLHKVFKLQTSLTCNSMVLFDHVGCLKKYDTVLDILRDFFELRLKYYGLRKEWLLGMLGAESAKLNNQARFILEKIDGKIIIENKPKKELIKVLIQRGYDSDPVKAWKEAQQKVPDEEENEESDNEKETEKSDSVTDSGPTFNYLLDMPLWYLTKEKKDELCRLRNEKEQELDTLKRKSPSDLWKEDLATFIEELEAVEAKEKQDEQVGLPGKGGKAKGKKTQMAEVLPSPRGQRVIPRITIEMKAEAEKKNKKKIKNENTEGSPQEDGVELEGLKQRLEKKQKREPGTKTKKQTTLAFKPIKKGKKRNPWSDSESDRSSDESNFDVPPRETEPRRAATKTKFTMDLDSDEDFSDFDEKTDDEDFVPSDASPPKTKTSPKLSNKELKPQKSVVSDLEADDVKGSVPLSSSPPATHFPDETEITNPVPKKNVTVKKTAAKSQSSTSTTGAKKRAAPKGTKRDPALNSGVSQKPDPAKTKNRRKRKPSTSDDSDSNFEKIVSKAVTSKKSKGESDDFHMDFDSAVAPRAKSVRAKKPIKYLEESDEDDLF
Experiment: Inhibition of human topoisomerase 2-mediated relation of supercoiled DNA at 500 uM after 60 mins
The source made the active and inactive calls. No cut-off for these calls is given here.
EXPERIMENTAL_READOUT: inhibition

COMPOUND_SMILES: CC(=O)OC[C@]1(O)CO[C@H](Oc2c(-c3ccc(O)cc3)oc3cc(O[C@@H]4O[C@@H](C)[C@H](O)[C@@H](O)[C@H]4O)cc(O)c3c2=O)[C@H]1O
EXPERIMENTAL_READOUT: inhibition
REPORTED_RESULT: 88%
--
COMPOUND_SMILES: C[C@@H]1O[C@@H](Oc2cc(O)c3c(=O)c(O[C@@H]4O[C@H](CO)[C@@H](O)[C@H](O)[C@H]4O)c(-c4ccc(O)cc4)oc3c2)[C@H](O)[C@H](O)[C@H]1O
EXPERIMENTAL_READOUT: inhibition
REPORTED_RESULT: Active
--
COMPOUND_SMILES: C[C@@H]1O[C@@H](Oc2cc(O)c3c(=O)c(O[C@@H]4O[C@H](CO)[C@@H](O)[C@H](O)[C@H]4O[C@@H]4O[C@@H](C)[C@H](O)[C@@H](O)[C@H]4O)c(-c4ccc(O)cc4)oc3c2)[C@H](O)[C@H](O)[C@H]1O
EXPERIMENTAL_READOUT: inhibition
REPORTED_RESULT: Active
